These entries and their values trace back to paper PMC10397247.

Target: T1, 4H591-bH
T1 chain: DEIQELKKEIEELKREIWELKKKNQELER
Test: two-hybrid library CCNG1;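 also: natural log of median RNA to DNA barcode read ratio; higher means stronger binding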
value_kind: interaction score
Answer using only a numeral; do not append any unit.

# get_value(readout='interaction score', item= DENQELKKEIEELEREIWELEKKNQELKR [4H1544-bH] ) 1.2

# get_value(readout='interaction score', item= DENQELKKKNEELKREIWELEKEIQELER [4H1985-bH] ) -1.01

# get_value(readout='interaction score', item= DENQELEKKIEELKRENWELKKKIQELER [4H1373-bH] ) -0.84

# get_value(readout='interaction score', item= DKNQELEKEIEELKRENWELKKEIQELKR [4H3162-bH] ) -0.636
